Origin of measurements: paper PMC10683025

assay: Plasma stability; assay type: in vitro ADME, Sprague-Dawley rat; conditions: Sprague-Dawley, rat, plasma
PROPERTY_NAME: remaining at 5 μM

// remaining at 5 μM lookup, compound = COc1cc2ncnc(Nc3cccc(Cl)c3F)c2cc1OCCON1CCN(C)CC1 [Compound 9] , result: > 90%

* * *

test: Caco-2 permeability; assay type: in vitro ADME; conditions: human, Caco-2
PROPERTY_NAME: efflux ratio at 2 h, 5 µM
Answers are plain numbers.

Some entries whose results are on file:
Recorded efflux ratio at 2 h, 5 µM (compound COc1cc2ncnc(Nc3ccc(F)c(Cl)c3)c2cc1OCCON1CCOCC1 ): 1.9

Record COc1cc2ncnc(Nc3cccc(Cl)c3F)c2cc1OCCON1CCOCC1 . Reported efflux ratio at 2 h, 5 µM: 1

efflux ratio at 2 h, 5 µM for COc1cc2ncnc(Nc3cccc(Cl)c3F)c2cc1OCCON1CCN(C)CC1 is 1.3

Now look at this one.
For this compound ( COc1cc2ncnc(Nc3ccc(F)c(Cl)c3)c2cc1OCCON1CCN(C)CC1 ), measured efflux ratio at 2 h, 5 µM is 20.2

* * *

Can you tell me fraction unbound at 6 h, 5 μM for the items I'm about to list?
experiment: Plasma protein binding by equilibrium dialysis; type: in vitro ADME; settings: Sprague-Dawley, rat, rat plasma; read-out: %Bound (converted)

Value of measured fraction unbound at 6 h, 5 μM for the entry COc1cc2ncnc(Nc3cccc(Cl)c3F)c2cc1OCCON1CCOCC1 : 0.105

The molecule listed as COc1cc2ncnc(Nc3ccc(F)c(Cl)c3)c2cc1OCCCN1CCOCC1 [Gefitinib (1), Gefitinib, reference compound] shows fraction unbound at 6 h, 5 μM equal to 0.0249

Now take the following molecule into account.
Recorded result, COc1cc2ncnc(Nc3cccc(Cl)c3F)c2cc1OCCON1CCN(C)CC1 , fraction unbound at 6 h, 5 μM: 0.128

* * *

test: Plasma stability; type: in vitro ADME, human; conditions: human plasma, 120 min
Rule: TRUE for Remaining Percentages not less than 90%, FALSE for anything less.

Please review the entries below; each comes with its answer.
Has COc1cc2ncnc(Nc3ccc(F)c(Cl)c3)c2cc1OCCON1CCOCC1 a recorded Remaining Percentages greater than or equal to 90%?
TRUE

Could you tell me if the measured Remaining Percentages of COc1cc2ncnc(Nc3cccc(Cl)c3F)c2cc1OCCON1CCOCC1 reaches 90% or more?
TRUE

# check: Remaining Percentages of CC(C)[N+](C)(CCOC(=O)C1c2ccccc2Oc2ccccc21)C(C)C [Propantheline, reference compound] is greater than or equal to 90%
FALSE

Alright, here's another compound for you.
Please check the record COc1cc2ncnc(Nc3ccc(F)c(Cl)c3)c2cc1OCCCN1CCOCC1 [Gefitinib (1), Gefitinib, reference compound] and state if its Remaining Percentages is at or above 90%.
TRUE

* * *

molecular target: CYP2D6 (Homo sapiens); experiment: CYP2D6 time-dependent inhibition in human liver microsomes; conditions: read-out: CYP2D6 IC50; liver microsomes, pre-incubation 0 min
Sequence (P10635 whole entry): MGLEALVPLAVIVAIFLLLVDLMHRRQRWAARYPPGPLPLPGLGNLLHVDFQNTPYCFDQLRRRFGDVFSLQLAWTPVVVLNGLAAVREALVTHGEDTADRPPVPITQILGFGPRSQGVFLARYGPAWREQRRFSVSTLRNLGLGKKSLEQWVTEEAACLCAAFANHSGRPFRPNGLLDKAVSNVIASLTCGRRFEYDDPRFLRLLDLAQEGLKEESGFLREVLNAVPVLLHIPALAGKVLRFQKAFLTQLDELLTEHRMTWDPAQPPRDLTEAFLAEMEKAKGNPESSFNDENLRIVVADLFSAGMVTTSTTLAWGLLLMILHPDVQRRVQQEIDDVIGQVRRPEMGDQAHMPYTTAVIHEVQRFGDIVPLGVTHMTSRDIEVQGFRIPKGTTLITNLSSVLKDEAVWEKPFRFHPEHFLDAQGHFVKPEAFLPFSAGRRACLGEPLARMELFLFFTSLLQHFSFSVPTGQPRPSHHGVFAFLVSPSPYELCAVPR
PROPERTY_NAME: pIC50
Numbers only, as −log10 of the molar value.

I looked up COc1cc2ncnc(Nc3cccc(Cl)c3F)c2cc1OCCON1CCN(C)CC1 [Compound 9] and its pIC50 for CYP2D6 (Homo sapiens) was 5.98

* * *

Tested on: AU565 (HER2-positive breast cancer)
Experiment: CellTiter-Glo cell viability assay
Type: cell-based, human
Details: Homo sapiens, AU565; 72 h, unadjusted for FBS
Method: The A431, HCC827, SK-BR-3, ZR-75–30, AU565, and Caco-2 cell lines were obtained from ATCC. The NCI-H1975 cell line was obtained from SIBS. The NCI-H3255 cell line was obtained from CoBioer. Engineered Ba/F3 cell lines were obtained from Crown Bioscience. MCKII-MDR1 cells were obtained from The Netherlands Cancer Institute. HEK293 cells were obtained from Invitrogen. A431 cells were cultured in DMEM (Life Technologies) with 10% FBS. […]
PROPERTY_NAME: IC50 (µM)
One number for each entry, in µM.

Value of measured IC50 for the entry COc1cc2ncnc(Nc3cccc(Cl)c3F)c2cc1OCCON1CCN(C)CC1 : 0.986

* * *

molecular target: CYP1A2 (Homo sapiens, UniProt P05177); construct: tissue BD Gentest; host or cells: pooled human liver microsomes; assay: CYP450 inhibition in human liver microsomes; type: in vitro ADME
Sequence (P05177 whole entry): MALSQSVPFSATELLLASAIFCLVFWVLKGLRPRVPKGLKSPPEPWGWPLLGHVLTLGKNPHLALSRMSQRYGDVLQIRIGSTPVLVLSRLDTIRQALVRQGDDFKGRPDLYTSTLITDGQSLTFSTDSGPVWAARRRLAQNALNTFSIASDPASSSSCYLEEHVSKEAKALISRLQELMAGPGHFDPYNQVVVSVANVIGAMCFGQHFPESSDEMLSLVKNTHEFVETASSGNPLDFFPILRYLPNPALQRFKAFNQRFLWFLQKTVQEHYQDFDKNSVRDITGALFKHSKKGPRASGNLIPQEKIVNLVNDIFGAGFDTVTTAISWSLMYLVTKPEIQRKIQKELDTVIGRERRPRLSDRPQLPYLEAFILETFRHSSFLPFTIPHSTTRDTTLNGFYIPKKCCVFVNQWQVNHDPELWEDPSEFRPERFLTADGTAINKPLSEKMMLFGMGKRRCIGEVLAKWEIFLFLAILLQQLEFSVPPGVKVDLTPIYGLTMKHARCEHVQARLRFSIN
PROPERTY_NAME: IC50

Test item COc1cc2ncnc(Nc3cccc(Cl)c3F)c2cc1OCCON1CCN(C)CC1 [Compound 9] ; CYP1A2 (Homo sapiens, UniProt P05177); reported IC50 was > 30 µM

* * *

tested on: A431 cell line (overexpressed EGFRwt); experiment: CellTiter-Glo cell viability assay; type: cell-based, human; conditions: Homo sapiens, A-431; 72 h, unadjusted for FBS
PROPERTY_NAME: pIC50
Answers are plain numbers, as −log10 of the molar value.

Sample COc1cc2ncnc(Nc3cccc(Cl)c3F)c2cc1OCCON1CCN(C)CC1 [Compound 9] ; pIC50 observed: 7.08

* * *

system: MDR1; test: MDCKII-MDR1 permeability; type: in vitro ADME, canine; conditions: dog, MDCK-MDR1; 1 μM, 2 h
PROPERTY_NAME: Papp B→A at 2 h, 1 µM (×10⁻⁶ cm/s)
Numbers only, in ×10⁻⁶ cm/s.

Completed entries (count: 3):
Query COc1cc2ncnc(Nc3ccc(F)c(Cl)c3)c2cc1OCCON1CCN(C)CC1 yields Papp B→A at 2 h, 1 µM of 11.7

// Papp B→A at 2 h, 1 µM lookup, molecule = COc1cc2ncnc(Nc3cccc(Cl)c3F)c2cc1OCCON1CCN(C)CC1 , result: 9.1

What the record says about COc1cc2ncnc(Nc3cccc(Cl)c3F)c2cc1OCCON1CCOCC1 : Papp B→A at 2 h, 1 µM is 13.3

Moving on to the next molecule.
// recorded Papp B→A at 2 h, 1 µM for COc1cc2ncnc(Nc3ccc(F)c(Cl)c3)c2cc1OCCON1CCOCC1 : 8.3

* * *

Kindly supply the reported fraction unbound at 6 h, 5 μM values for the records listed here.
assay: Brain tissue binding by equilibrium dialysis; assay type: in vitro ADME; conditions: Sprague-Dawley, rat, brain homogenate; read-out: fu,brain% / %Unboundbrain
Give bare numbers.

The reported fraction unbound at 6 h, 5 μM of the compound CCCc1nc2c(C)cc(-c3nc4ccccc4n3C)cc2n1Cc1ccc(-c2ccccc2C(=O)O)cc1 [Telmisartan, reference compound] was 0.0146

Reported fraction unbound at 6 h, 5 μM of COc1cc2ncnc(Nc3cccc(Cl)c3F)c2cc1OCCON1CCOCC1 : 0.0478

Notebook: COc1cc2ncnc(Nc3cccc(Cl)c3F)c2cc1OCCON1CCN(C)CC1 , fraction unbound at 6 h, 5 μM read as 0.0447

We now examine a further compound.
Field fraction unbound at 6 h, 5 μM (entry COc1cc2ncnc(Nc3ccc(F)c(Cl)c3)c2cc1OCCCN1CCOCC1 [Gefitinib (1), Gefitinib, reference compound] ) reads 0.006

* * *

target: hERG (Homo sapiens, UniProt Q12809); construct: host or cells: HEK293; assay: hERG manual patch clamp in HEK293; assay type: cell-based; details: human, HEK293 cells stably transfected with hERG; HEK 293 (+hERG), manual patch clamp
Sequence (Q12809 whole entry): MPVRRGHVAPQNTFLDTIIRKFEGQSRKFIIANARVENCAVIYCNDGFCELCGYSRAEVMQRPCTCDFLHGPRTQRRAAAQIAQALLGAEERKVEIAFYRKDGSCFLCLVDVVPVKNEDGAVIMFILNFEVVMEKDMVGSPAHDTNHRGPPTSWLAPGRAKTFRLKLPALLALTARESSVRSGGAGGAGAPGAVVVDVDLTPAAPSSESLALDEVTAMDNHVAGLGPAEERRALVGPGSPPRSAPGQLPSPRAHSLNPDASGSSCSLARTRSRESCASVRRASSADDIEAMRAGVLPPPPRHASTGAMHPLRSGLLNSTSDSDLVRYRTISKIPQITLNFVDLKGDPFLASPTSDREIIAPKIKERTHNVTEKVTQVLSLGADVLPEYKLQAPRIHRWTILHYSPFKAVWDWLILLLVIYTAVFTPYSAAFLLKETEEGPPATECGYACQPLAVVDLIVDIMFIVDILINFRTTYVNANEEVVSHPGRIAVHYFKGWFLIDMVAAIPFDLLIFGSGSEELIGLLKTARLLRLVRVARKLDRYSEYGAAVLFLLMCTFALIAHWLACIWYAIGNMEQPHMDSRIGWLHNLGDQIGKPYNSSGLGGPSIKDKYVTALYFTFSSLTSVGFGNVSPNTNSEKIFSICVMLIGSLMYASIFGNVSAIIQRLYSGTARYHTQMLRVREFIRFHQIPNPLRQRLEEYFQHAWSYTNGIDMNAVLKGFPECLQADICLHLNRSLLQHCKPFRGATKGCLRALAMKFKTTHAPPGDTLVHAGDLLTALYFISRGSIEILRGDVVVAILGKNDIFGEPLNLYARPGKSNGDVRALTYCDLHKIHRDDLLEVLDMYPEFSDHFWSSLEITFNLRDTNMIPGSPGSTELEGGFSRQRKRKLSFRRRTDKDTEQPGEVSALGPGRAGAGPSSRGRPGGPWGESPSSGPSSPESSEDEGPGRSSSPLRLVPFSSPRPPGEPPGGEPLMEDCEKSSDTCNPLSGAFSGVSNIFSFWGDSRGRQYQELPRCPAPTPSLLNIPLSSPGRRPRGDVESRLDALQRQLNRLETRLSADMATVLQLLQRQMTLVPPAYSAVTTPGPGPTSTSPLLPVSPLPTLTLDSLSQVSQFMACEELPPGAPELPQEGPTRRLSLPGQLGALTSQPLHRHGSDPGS
Exercise: state measured IC50 for each of the compounds provided.
Numbers only, in µM.

Could I get IC50 for every one of these entries?
1. COc1cc2ncnc(Nc3cccc(Cl)c3F)c2cc1OCCON1CCOCC1
2. COc1cc2ncnc(Nc3cccc(Cl)c3F)c2cc1OCCON1CCN(C)CC1

[8.48, 6.48]

* * *

experiment: Metabolic stability in liver microsomes; type: in vitro ADME, human; conditions: human LM, +Cofactors, 60 min
Exercise: state measured Remaining Percentage for each of the compounds provided.
Give bare numbers, in %.

Remaining Percentage for COc1cc2ncnc(Nc3cccc(Cl)c3F)c2cc1OCCON1CCOCC1 [Compound 7] is 7.20

Recorded result, COc1cc2ncnc(Nc3ccc(F)c(Cl)c3)c2cc1OCCON1CCOCC1 [Compound 6] , Remaining Percentage: 14.00

Remaining Percentage measured on COc1cc2ncnc(Nc3ccc(F)c(Cl)c3)c2cc1OCCCN1CCOCC1 [Gefitinib (1), Gefitinib, reference compound] = 8.14

According to the records, this compound COc1cc2ncnc(Nc3ccc(F)c(Cl)c3)c2cc1OCCON1CCN(C)CC1 [Compound 8] displays Remaining Percentage of 20.34

Kindly review the next compound as well.
Note to self: Remaining Percentage recorded for COc1cc2ncnc(Nc3cccc(Cl)c3F)c2cc1OCCON1CCN(C)CC1 [Compound 9] was 26.65

* * *

So I've got a bunch of compounds here, and I need their Remaining Percentage values.
test: Metabolic stability in liver microsomes; format: in vitro ADME, Sprague-Dawley rat; conditions: rat LM, +Cofactors, 15 min
Answers are plain numbers, in %.

Record COc1cc2ncnc(Nc3cccc(Cl)c3F)c2cc1OCCON1CCOCC1 . Reported Remaining Percentage: 28.79

Remaining Percentage in this record for COc1cc2ncnc(Nc3cccc(Cl)c3F)c2cc1OCCON1CCN(C)CC1 : 34.07

Remaining Percentage reported for this compound COc1cc2ncnc(Nc3ccc(F)c(Cl)c3)c2cc1OCCON1CCN(C)CC1 : 58.02

Report Remaining Percentage for every entry below.
1. COc1cc2ncnc(Nc3ccc(F)c(Cl)c3)c2cc1OCCCN1CCOCC1 [Gefitinib (1), Gefitinib, reference compound]
2. COc1cc2ncnc(Nc3ccc(F)c(Cl)c3)c2cc1OCCON1CCOCC1

1. 63.13
2. 50.62
